molecular target: T1, human GPC3 (human, UniProt P51654 25-563); experiment: SPR
T1 construct: range 25-563; soluble analyte; also called soluble human GPC3; glypican 3
T1 sequence (P51654 25-563 limits assumed): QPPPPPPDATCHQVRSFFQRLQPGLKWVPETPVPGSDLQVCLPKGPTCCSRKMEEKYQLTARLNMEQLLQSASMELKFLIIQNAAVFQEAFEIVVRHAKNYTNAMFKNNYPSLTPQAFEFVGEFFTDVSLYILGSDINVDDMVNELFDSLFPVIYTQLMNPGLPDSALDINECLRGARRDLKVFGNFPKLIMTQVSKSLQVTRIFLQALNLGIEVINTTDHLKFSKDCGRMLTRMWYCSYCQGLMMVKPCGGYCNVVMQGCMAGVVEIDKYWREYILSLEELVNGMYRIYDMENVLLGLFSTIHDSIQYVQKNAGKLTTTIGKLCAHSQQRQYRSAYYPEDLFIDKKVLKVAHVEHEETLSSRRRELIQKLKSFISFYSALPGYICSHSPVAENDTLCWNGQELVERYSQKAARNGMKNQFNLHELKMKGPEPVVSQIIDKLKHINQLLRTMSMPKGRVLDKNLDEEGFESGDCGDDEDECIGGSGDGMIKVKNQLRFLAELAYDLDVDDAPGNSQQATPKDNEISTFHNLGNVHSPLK
MEASURED PROPERTY: Kd
Could you write the number and then its unit?

Some solved cases for reference:
BINDER	Kd
H0610-G1dh/none-Hi-Kn010G3/L0124-k0 (antibody, V domains shown, one-arm) VH: QVQLVQSGAEVKKPGASVKVSCKASGYTFTDYEMHWIRQPPGQGLEWIGAIDGKTPDTAYSQKFKGRVTLTADKSTSTAYMELSSLTSEDTAVYYCTRFYSYTYWGQGTLVTVSS VL: DIVMTQSPLSLPVTPGEPASISCRSSQSLVHSNRNTYLHWYQQKPGQAPRLLIYKVSNRLSGVPDRFSGSGSGTDFTLKISRVEAEDVGVYYCGQGTQVPYTFGQGTKLEIK	0.972 nM
H0610-G1dh/none-Hi-Kn010G3/TR01L009-k0 (antibody, V domains shown, one-arm) VH: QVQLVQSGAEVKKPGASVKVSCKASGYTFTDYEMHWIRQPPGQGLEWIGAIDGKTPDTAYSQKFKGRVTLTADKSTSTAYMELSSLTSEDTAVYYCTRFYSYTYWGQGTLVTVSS VL: DIVMTQSPLSLPVTPGEPASISCRSSQSLVHSNRNTYLHWYLQKPGQSPQLLIYKVSNRFRGVPDRFSGSGSGTDFTLKISRVEAEDVGVYYCGQGTQVPYTFGQGTKLEIK	3.81 nM

Look up Kd for this binder: GCH006-G1dh/none-Hi-Kn010G3/L0000-k0 (antibody, V domains shown, one-arm) VH: QVQLVQSGAEVKKPGASVKVSCKASGYTFTDYEMHWIRQPPGQGLEWIGAIDGKTPDTAYEQKFKGRVTLTADKSTSTAYMELSSLTSEDTAVYYCTRFYSYTYWGQGTLVTVSS VL: DIVMTQSPLSLPVTPGEPASISCRSSQSLVHSNRNTYLHWYQQKPGQAPRLLIYKVSNRFSGVPDRFSGSGSGTDFTLKISRVEAEDVGVYYCGQGTQVPYTFGQGTKLEIKR
4.06 nM

Check GCH012-G1dh/none-Hi-Kn010G3/L0000-k0 (antibody, V domains shown, one-arm) VH: QVQLVQSGAEVKKPGASVKVSCKASGYTFTDYEMHWIRQPPGQGLEWIGAIDGKTPDTAEEQKFKGRVTLTADKSTSTAYMELSSLTSEDTAVYYCTRFYSYTYWGQGTLVTVSS VL: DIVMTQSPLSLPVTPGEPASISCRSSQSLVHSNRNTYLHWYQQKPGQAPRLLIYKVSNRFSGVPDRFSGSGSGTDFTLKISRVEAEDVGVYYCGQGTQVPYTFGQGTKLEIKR too.
5.4 nM
